src = PubChem BioAssay AID330

# reported T/C; entries follow
System: P388 leukemia ip, CD2F1 mice, survival T/C
Experiment: NCI In Vivo Anticancer Drug Screen. Data for tumor model P388 Leukemia (intraperitoneal) in CD2F1 (CDF1) mice
Settings: endpoint: median survival time; dose: 25.0 mg/kg/injection; schedule: Q04DX003 (ip); vehicle: saline; higher = longer survival
Inconclusive results and toxic doses are left out.

- COMPOUND: "O=[N+]([O-])c1cccc(C(O)C=C(C(F)(F)F)C(F)(F)F)c1 (stereo unspecified)"
  T/C: "100 % of control"
- COMPOUND: "COc1ccc2c(c1O)-c1c(O)c(OC)cc3c1[C@H](C2)[N+](C)(C)CC3"
  T/C: "114 % of control"
- COMPOUND: "O=C1SCCC1CO (stereo unspecified)"
  T/C: "100 % of control"
- COMPOUND: "O=CC(O)C(O)C(O)C(O)CO (stereo unspecified)"
  T/C: "100 % of control"
- COMPOUND: "CNC(=S)N/N=C(\\C)C(C)(C)C"
  T/C: "101 % of control"
- COMPOUND: "O=C(O)C1(C(=O)O)CCC1.[NH2-].[NH2-].[Pt+2]"
  T/C: "114 % of control"
